ASSAY SYSTEM: MDR1 (Homo sapiens (Human))
Sequence (P08183 whole entry): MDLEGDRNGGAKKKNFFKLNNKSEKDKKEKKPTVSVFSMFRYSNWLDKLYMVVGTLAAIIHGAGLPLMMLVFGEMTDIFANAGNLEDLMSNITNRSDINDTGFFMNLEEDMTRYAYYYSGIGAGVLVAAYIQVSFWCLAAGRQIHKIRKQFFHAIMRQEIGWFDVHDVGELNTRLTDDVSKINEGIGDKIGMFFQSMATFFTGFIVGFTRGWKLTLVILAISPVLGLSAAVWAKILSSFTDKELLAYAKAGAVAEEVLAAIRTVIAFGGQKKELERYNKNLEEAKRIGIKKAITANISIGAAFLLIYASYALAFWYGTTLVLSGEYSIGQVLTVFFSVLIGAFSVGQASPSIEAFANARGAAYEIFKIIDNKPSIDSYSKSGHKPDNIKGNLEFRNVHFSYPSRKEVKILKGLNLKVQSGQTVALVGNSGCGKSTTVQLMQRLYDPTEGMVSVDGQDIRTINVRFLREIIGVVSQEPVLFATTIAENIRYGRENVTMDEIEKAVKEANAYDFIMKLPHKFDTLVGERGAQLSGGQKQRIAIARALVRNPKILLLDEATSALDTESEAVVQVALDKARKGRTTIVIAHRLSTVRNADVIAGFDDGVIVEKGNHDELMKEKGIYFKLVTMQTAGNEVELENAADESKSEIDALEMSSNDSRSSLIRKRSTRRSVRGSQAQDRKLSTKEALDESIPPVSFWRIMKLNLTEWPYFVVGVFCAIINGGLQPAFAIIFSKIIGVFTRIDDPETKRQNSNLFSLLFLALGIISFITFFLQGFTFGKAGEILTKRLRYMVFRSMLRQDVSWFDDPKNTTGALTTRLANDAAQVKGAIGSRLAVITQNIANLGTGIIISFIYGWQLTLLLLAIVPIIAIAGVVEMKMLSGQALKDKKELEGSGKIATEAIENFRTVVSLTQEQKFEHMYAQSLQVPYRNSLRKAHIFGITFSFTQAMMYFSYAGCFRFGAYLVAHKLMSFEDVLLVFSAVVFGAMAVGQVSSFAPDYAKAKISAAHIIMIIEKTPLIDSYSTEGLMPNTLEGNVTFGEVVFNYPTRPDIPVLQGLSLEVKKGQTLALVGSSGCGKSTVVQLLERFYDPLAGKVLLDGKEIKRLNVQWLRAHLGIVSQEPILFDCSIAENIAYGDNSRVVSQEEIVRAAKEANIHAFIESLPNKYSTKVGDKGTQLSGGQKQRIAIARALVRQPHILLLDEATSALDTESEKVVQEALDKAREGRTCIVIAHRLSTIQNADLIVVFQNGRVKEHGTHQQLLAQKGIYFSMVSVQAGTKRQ
METHOD SUMMARY: MDR1-MDCK assay (apparent permeability, efflux ratio)
Format: in vitro ADME
EXPERIMENTAL SETUP: human, MDCK-MDR1, 1 μM, read-out: MDR1-MDCK_Efflux Ratio
Quick rule: efflux ratio at 120 min, 1 μM of at least 4 means True, below that means False.

COCC12CC(n3cc4cc(C(=O)Nc5cccn([C@@H]6C[C@H]6F)c5=O)c(OC5CCC5)nc4n3)(CO1)C2 (single isomer, unassigned) [Example 65] | False
COCC12CC(n3cc4cc(C(=O)Nc5cccn([C@H]6C[C@H]6C)c5=O)c(OC(C)C)cc4n3)(CO1)C2 [Example 78] | False
CC(C)Oc1nc2nn(C34COC(C)(C3)C4)cc2cc1C(=O)Nc1ccnn(C2CC2)c1=O [Example 46] | False
CC(C)Oc1nc2nn(C34COC(C)(C3)C4)cc2cc1C(=O)Nc1cccn(C2C[C@@H]2F)c1=O (mixture of isomers) [Example 42] | False
CC(C)Oc1nc2nn(C34COC(C)(C3)C4)cc2cc1C(=O)Nc1cccn([C@@H]2C[C@@H]2F)c1=O (racemic) [Example 32] | True
CC12CC(n3cc4cc(C(=O)Nc5cccn([C@H]6C[C@H]6F)c5=O)c(OC5CCC5)nc4n3)(CO1)C2 [Example 27] | True
O=C(Nc1cccn([C@H]2C[C@H]2F)c1=O)c1cc2cn([C@@]34CC[C@@H](C3)OC4)nc2nc1OC1CC1 (single isomer, unassigned) [Example 87] | True
CC(C)Oc1cc2nn([C@]34CC[C@](C)(C3)OC4)cc2cc1C(=O)Nc1cccn([C@@H]2C[C@H]2F)c1=O (single isomer, unassigned) [Example 61] | False
CC12CC(n3cc4cc(C(=O)Nc5cccn([C@H]6C[C@H]6F)c5=O)c(OC5CC5)nc4n3)(CO1)C2 [Example 85] | True
O=C(Nc1cccn([C@H]2C[C@H]2F)c1=O)c1cc2cn([C@]34CC[C@H](C3)OC4)nc2nc1OC1CC1 (single isomer, unassigned) [Example 88] | True
CC(C)Oc1nc2nn(C34COC(C)(C3)C4)cc2cc1C(=O)Nc1cccn([C@@H]2C[C@H]2F)c1=O (single isomer, unassigned) [Example 44] | False
COCC12CC(n3cc4cc(C(=O)Nc5cccn([C@H]6C[C@@H]6F)c5=O)c(OC(C)C)nc4n3)(CO1)C2 (single isomer, unassigned) [Example 64] | True
CC(C)Oc1cc2nn(C34COC(C)(C3)C4)cc2cc1C(=O)Nc1cccn([C@@H]2C[C@@H]2F)c1=O (single isomer, unassigned) [Example 36] | False
